Tested on: HEL
measurement-protocol: Cytostatic concentration required to inhibit HEL cell proliferation
Assay type: functional
study-conditions: Homo sapiens
endpoint-name: CC50 (µM)
Form entry: value (µM) — number only.

>  <molecule>
CCNC(=O)NC1=CS(=O)(=O)O[C@@]12[C@@H](CO[Si](C)(C)C(C)(C)C)O[C@@H](n1cc(C)c(=O)n(C)c1=O)[C@@H]2O[Si](C)(C)C(C)(C)C

>  <endpoint-name>
CC50

>  <recorded-value>
10

$$$$
>  <molecule>
COC(=O)CNC1=CS(=O)(=O)O[C@@]12[C@@H](CO[Si](C)(C)C(C)(C)C)O[C@@H](n1cc(C)c(=O)n(C)c1=O)[C@@H]2O[Si](C)(C)C(C)(C)C

>  <endpoint-name>
CC50

>  <recorded-value>
160

$$$$
>  <molecule>
Cc1cn([C@@H]2O[C@H](CO[Si](C)(C)C(C)(C)C)[C@@]3(OS(=O)(=O)C=C3NCC(=O)O)[C@H]2O[Si](C)(C)C(C)(C)C)c(=O)n(C)c1=O

>  <endpoint-name>
CC50

>  <recorded-value>
136

$$$$
>  <molecule>
C=C(C)C(=O)NC(=O)NC1=CS(=O)(=O)O[C@@]12[C@@H](CO[Si](C)(C)C(C)(C)C)O[C@@H](n1cc(C)c(=O)n(C)c1=O)[C@@H]2O[Si](C)(C)C(C)(C)C

>  <endpoint-name>
CC50

>  <recorded-value>
1.2

$$$$

// molecule Cc1cn([C@@H]2O[C@H](CO[Si](C)(C)C(C)(C)C)[C@@]3(OS(=O)(=O)C=C3NC(N)=O)[C@H]2O[Si](C)(C)C(C)(C)C)c(=O)n(C)c1=O , assay HEL, CC50 value: 11

// molecule COC(=O)CCNC1=CS(=O)(=O)O[C@@]12[C@@H](CO[Si](C)(C)C(C)(C)C)O[C@@H](n1cc(C)c(=O)n(C)c1=O)[C@@H]2O[Si](C)(C)C(C)(C)C , assay HEL, CC50 value: 94
